Data provenance: ChEMBL document CHEMBL1136951

condition: rat, microsomes, 2 µM
measurement_type: clearance (µL/min/mg)

Please give the measured clearance for this compound: CC(C)N1CCC(Oc2ccc3cc(C(=O)N4CCOCC4)[nH]c3c2)CC1
8

(I) CC(C)N1CCC(Oc2ccc3c(c2)cc(C(=O)N2CCS(=O)(=O)CC2)n3CC(F)(F)F)CC1
(II) O=C(c1cc2cc(OC3CCN(C4CC4)CC3)ccc2[nH]1)N1CCOCC1
Which item exceeds the other in clearance, I or II ? State the label of the item chosen.
II
(II: 347 µL/min/mg, I: 4 µL/min/mg)

###

condition: human, microsomes, 2 µM
Overview of reported clearance across a group of compounds:

Solved entries (count: 2):
Please give the measured clearance for this compound: CCOC(=O)c1cc2cc(C(=O)O)ccc2[nH]1
< 1 µL/min/mg

Please give the measured clearance for this compound: CC(C)N1CCC(Oc2ccc3c(c2)cc(C(=O)N2CCC(F)(F)CC2)n3CC#N)CC1
< 1 µL/min/mg

# input for lookup
Please give the measured clearance for this compound: CC(C)N1CCC(Oc2ccc3c(c2)cc(C(=O)N2CCC(F)(F)CC2)n3S(C)(=O)=O)CC1
< 1 µL/min/mg

###

condition: rat, microsomes, 2 µM
measurement_type: clearance (µL/min/mg)

Please give the measured clearance for this compound: O=C(c1cc2cc(OCCCN3CCCCC3)ccc2[nH]1)N1CCOCC1
6

Please give the measured clearance for this compound: CC(C)N1CCC(Oc2ccc3[nH]c(C(=O)N4CCC(F)(F)CC4)cc3c2)CC1
9

Please give the measured clearance for this compound: CC(C)N1CCC(Oc2ccc3[nH]c(C(=O)N4CCCCCC4)cc3c2)CC1
55

Please give the measured clearance for this compound: CC(C)N1CCC(Oc2ccc3[nH]c(C(=O)N4CCCC(F)(F)C4)cc3c2)CC1
17

Please give the measured clearance for this compound: CC(C)N1CCC(Nc2ccc3[nH]c(C(=O)N4CCOCC4)cc3c2)CC1
9

(a) O=C(c1cc2cc(OC3CCN(C4CCC4)CC3)ccc2n1CC(F)(F)F)N1CCOCC1
(b) CC(C)N1CCC(Oc2ccc3c(c2)cc(C(=O)N2CCC(F)(F)CC2)n3-c2ccc(Cl)c(Cl)c2)CC1
// select label with min value of measured clearance from [ a , b ] State the label of the item chosen.
a

###

experiment_notes: physchem
measurement_type: pKa

Please give the measured pKa for this compound: CC(C)N1CCC(Oc2ccc3c(c2)cc(C(=O)N2CCC(F)(F)CC2)n3CC#N)CC1
9.8

Please give the measured pKa for this compound: COC1CCN(C(=O)c2cc3cc(OC4CCN(C(C)C)CC4)ccc3[nH]2)CC1
9.9

Please give the measured pKa for this compound: O=C(c1cc2cc(OCCCN3CCCCC3)ccc2[nH]1)N1CCOCC1
10

Please give the measured pKa for this compound: CC(C)N1CCC(Oc2ccc3c(c2)cc(C(=O)N2CCC(F)(F)CC2)n3CC(F)(F)F)CC1
9.7

###

experiment_notes: physchem
condition: octanol/water, pH 7.4
measurement_type: logD

(a) CC(C)N1CCC(Oc2ccc3[nH]c(C(=O)N4CCCCCC4)cc3c2)CC1
(b) CC(C)(C)N1CCC(Oc2ccc3[nH]c(C(=O)N4CCOCC4)cc3c2)CC1
Which item exceeds the other in logD, a or b ? State the label of the item chosen.
a

###

experiment_notes: physchem
condition: octanol/water, pH 7.4
measurement_type: logD

Solved entries (count: 2):
Please give the measured logD for this molecule: O=C(c1cc2cc(OCCCN3CCCCC3)ccc2[nH]1)N1CCOCC1
0.32

Please give the measured logD for this molecule: CC(C)N1CCC(Nc2ccc3[nH]c(C(=O)N4CCOCC4)cc3c2)CC1
-0.7

(1) O=C(c1cc2cc(OC3CCN(C4COC4)CC3)ccc2n1CC(F)(F)F)N1CCOCC1
(2) COC1CCN(C(=O)c2cc3cc(OC4CCN(C(C)C)CC4)ccc3[nH]2)CC1
Which item exceeds the other in logD, 1 or 2 ? State the label of the item chosen.
1
(1: 1.83, 2: 0.59)

(I) CC(C)N1CCC(Oc2ccc3[nH]c(C(=O)N4CCC(F)(F)CC4)cc3c2)CC1
(II) O=C(c1cc2cc(OC3CCN(C4CC4)CC3)ccc2n1CC(F)(F)F)N1CCOCC1
// select label with min value of measured logD from [ I , II ] State the label of the item chosen.
I
(I: 1.2, II: 2.79)

###

condition: rat, microsomes, 2 µM
measurement_type: clearance (µL/min/mg)

Please give the measured clearance for this compound: CC(C)N1CCC(Oc2ccc3c(c2)cc(C(=O)N2CCOCC2)n3CC(F)(F)F)CC1
13

Please give the measured clearance for this compound: CC(C)N1CCC(Oc2cc3[nH]c(C(=O)N4CCOCC4)cc3cc2F)CC1
18

(1) CC(C)N1CCC(Oc2ccc3[nH]c(C(=O)N4CCC(O)C4)cc3c2)CC1 (centres undefined)
(2) O=C(c1cc2cc(OC3CCN(C4CC4)CC3)ccc2n1CC(F)(F)F)N1CCOCC1
Which item exceeds the other in clearance, 1 or 2 ? State the label of the item chosen.
2
(2: 143 µL/min/mg, 1: 5 µL/min/mg)

(P) CC(C)N1CCC(Oc2ccc3c(c2)cc(C(=O)N2CCC(F)(F)CC2)n3S(C)(=O)=O)CC1
(Q) CC(C)N1CCC(Oc2ccc3c(c2)cc(C(=O)N2CCC(F)(F)CC2)n3CC#N)CC1
// select label with min value of measured clearance from [ P , Q ] State the label of the item chosen.
P
(P: 10 µL/min/mg, Q: 16 µL/min/mg)

###

condition: rat, microsomes, 2 µM
measurement_type: clearance (µL/min/mg)

Please give the measured clearance for this compound: CC(C)N1CCC(Oc2ccc3c(c2)cc(C(=O)N2CCC(F)(F)CC2)n3S(=O)(=O)c2ccc(F)cc2)CC1
20

(a) CC(C)N1CCC(Oc2ccc3c(c2)cc(C(=O)N2CCC(F)(F)CC2)n3CC(F)(F)F)CC1
(b) COC1CCN(C(=O)c2cc3cc(OC4CCN(C(C)C)CC4)ccc3[nH]2)CC1
// select label with min value of measured clearance from [ a , b ] State the label of the item chosen.
a
